- study-target: EGFR (ErbB1) (Homo sapiens, UniProt P00533)
- Construct: purchased Invitrogen
- Sequence (P00533 25-1210): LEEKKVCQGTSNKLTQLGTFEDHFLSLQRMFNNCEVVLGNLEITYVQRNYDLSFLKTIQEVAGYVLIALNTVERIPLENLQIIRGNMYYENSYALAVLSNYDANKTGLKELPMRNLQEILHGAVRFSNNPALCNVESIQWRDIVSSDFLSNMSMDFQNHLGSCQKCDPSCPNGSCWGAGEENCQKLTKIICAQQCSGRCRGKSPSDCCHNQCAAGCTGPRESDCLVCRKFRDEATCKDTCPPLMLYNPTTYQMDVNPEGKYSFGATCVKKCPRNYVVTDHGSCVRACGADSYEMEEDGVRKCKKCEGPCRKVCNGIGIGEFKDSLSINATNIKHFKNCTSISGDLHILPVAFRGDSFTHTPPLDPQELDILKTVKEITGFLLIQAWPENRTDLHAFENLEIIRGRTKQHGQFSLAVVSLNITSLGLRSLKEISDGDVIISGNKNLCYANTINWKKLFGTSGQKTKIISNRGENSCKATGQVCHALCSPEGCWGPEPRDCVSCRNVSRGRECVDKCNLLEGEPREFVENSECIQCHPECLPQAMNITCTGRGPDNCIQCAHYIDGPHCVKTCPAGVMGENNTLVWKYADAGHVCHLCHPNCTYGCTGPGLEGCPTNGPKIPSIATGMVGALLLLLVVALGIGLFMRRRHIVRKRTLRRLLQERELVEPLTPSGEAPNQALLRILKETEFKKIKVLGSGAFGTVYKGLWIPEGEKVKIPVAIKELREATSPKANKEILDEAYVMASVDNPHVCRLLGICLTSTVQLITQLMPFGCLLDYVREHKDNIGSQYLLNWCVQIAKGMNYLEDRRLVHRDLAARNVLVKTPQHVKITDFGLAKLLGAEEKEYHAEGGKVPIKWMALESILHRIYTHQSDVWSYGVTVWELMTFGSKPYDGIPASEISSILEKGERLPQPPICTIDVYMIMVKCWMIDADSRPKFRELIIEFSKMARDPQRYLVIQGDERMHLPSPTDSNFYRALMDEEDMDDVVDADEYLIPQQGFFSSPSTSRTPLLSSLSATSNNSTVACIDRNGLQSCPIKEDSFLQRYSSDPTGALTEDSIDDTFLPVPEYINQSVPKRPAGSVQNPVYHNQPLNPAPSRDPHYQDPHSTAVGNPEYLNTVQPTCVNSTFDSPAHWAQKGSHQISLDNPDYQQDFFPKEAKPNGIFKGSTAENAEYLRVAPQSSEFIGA
- assay-remarks: In vitro kinase assay (Z′-LYTE)
- Type: biochemical
- settings: read-out: % of inhibition of the kinase compared to the control
measured-quantity: inhibition at 0.1 µM

Worked set:
Q: Value lookup for inhibition at 0.1 µM; key = CCCOC(=O)c1cc2cc(NCc3cc(NC(=O)c4ccc(CN5CCN(C)CC5)c(C(F)(F)F)c4)ccc3C)cnc2[nH]1 [OR0697]
Result: ≥ 50%

Q: Also COC(=O)c1cc2cc(NCc3cc(NC(=O)c4ccc(CN5CCN(C)CC5)c(F)c4)ccc3C)cnc2[nH]1 [OR0864] ?
Result: ≥ 50%

Q: Also COC(=O)c1cc2cc(NCc3cc(NC(=O)c4cccc5c4OCC5)ccc3C)cnc2[nH]1 [OR0618] ?
Result: < 50%

Q: Also COC(=O)c1cc2cc(NCc3cc(NC(=O)c4ccc(C)c(C(F)(F)F)c4)ccc3C)cnc2[nH]1 [OR0869] ?
Result: ≥ 50%

Q: Also COC(=O)c1cc2cc(NCc3cc(NC(=O)c4ccc(Cn5cnc(C)c5)c(C(F)(F)F)c4)ccc3C)cnc2[nH]1 [OR0639] ?
Result: ≥ 50%

New cases:
Q: Value lookup for inhibition at 0.1 µM; key = COC(=O)c1cc2cc(NCc3cccc(C(=O)Nc4cccnc4)c3)cnc2[nH]1 [OR0916]
Result: < 50%

Q: Also COC(=O)c1cc2cc(NCc3cc(NC(=O)c4cccc(C(F)(F)F)c4)ccc3C)cnc2[nH]1 [OR0606] ?
Result: ≥ 50%

Q: Also COC(=O)c1cc2cc(NCc3cc(NC(=O)c4cccc(C)c4)ccc3C)cnc2[nH]1 [OR0607] ?
Result: < 50%

----------
- Test system: HUVEC
- assay-remarks: In vitro cell proliferation assay (MTT)
- Assay type: cell-based
- settings: Homo sapiens, 72 h
measured-quantity: EC50

Worked set:
Q: Value lookup for EC50; key = COC(=O)c1cc2cc(NCc3cc(NS(=O)(=O)c4cccc(C(F)(F)F)c4)ccc3C)cnc2[nH]1
Result: ≥ 1000 nM

Q: Also COC(=O)c1cc2cc(NC(=O)c3cc(NC(=O)c4cncc(C(F)(F)F)c4)ccc3C)cnc2[nH]1 ?
Result: 100 to 1000 nM

Q: Also COC(=O)c1cc2cc(NCc3cc(NC(=O)Nc4ccncc4)ccc3C)cnc2[nH]1 ?
Result: ≥ 1000 nM

Proceed to the following item.
Q: Value lookup for EC50; key = COC(=O)c1cc2cc(NCc3cc(NC(=O)c4ccc(CN5CCN(C)CC5)c(C(F)(F)F)c4)ccc3F)cnc2[nH]1
Result: ≤ 100 nM

----------
- study-target: KDR (VEGFR2) (Homo sapiens, UniProt P35968)
- Construct: purchased Invitrogen
- Sequence (P35968 20-1356): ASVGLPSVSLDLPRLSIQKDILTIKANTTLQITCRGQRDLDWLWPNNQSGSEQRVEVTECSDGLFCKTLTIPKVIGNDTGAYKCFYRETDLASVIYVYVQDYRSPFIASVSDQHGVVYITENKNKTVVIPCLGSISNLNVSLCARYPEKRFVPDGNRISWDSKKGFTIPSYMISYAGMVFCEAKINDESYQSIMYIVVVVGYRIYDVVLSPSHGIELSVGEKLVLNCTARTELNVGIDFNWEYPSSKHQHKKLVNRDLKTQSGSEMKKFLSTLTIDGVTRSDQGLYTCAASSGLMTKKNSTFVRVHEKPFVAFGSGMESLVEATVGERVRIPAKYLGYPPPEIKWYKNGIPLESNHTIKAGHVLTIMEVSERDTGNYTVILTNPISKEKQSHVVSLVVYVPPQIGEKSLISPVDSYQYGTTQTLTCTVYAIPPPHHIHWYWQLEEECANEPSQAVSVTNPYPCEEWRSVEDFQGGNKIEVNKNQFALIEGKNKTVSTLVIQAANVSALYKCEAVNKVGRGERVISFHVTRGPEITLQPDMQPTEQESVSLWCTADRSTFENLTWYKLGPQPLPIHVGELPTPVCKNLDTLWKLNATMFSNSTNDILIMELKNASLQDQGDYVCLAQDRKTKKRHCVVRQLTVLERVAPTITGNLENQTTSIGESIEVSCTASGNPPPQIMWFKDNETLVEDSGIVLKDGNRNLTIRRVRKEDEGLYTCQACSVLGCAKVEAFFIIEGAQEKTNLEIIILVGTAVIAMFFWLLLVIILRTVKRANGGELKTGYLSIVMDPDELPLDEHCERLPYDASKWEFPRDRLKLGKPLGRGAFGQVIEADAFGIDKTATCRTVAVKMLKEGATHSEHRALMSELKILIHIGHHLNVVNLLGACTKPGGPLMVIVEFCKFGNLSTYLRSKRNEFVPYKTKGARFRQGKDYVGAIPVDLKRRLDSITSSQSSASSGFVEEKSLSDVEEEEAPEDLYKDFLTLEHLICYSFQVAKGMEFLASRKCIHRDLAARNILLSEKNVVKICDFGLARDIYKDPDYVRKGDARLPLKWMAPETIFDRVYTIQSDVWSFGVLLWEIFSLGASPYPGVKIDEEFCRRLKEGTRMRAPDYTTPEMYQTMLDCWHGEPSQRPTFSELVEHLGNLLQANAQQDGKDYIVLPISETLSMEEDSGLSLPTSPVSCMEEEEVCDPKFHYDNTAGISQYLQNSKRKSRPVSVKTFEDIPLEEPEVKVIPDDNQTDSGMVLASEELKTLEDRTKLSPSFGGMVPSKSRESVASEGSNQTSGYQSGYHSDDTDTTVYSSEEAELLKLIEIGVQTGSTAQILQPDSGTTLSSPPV
- assay-remarks: In vitro kinase assay (Z′-LYTE)
- Assay type: biochemical
- settings: read-out: % of inhibition of the kinase compared to the control
measured-quantity: inhibition at 0.1 µM

Q: Return inhibition at 0.1 µM measured with KDR (VEGFR2) (Homo sapiens, UniProt P35968) given this molecule: COC(=O)c1cc2cc(NCc3cc(NC(=O)c4cc(N(C)C)cc(C(F)(F)F)c4)ccc3C)cnc2[nH]1 [OR0597]
Result: < 50%

Q: Also COC(=O)c1cc2cc(NCc3cc(NC(=O)c4cc(Nc5cc[nH]n5)cc(C(F)(F)F)c4)ccc3C)cnc2[nH]1 [OR0642] ?
Result: < 50%

Q: Also CCCOC(=O)c1cc2cc(NCc3cc(NC(=O)c4ccc(CN5CCN(C)CC5)c(C(F)(F)F)c4)ccc3C)cnc2[nH]1 [OR0697] ?
Result: < 50%

Q: Also COC(=O)c1cc2cc(NC(=O)c3cccc(CNC(=S)c4cccc(C(F)(F)F)c4)c3)cnc2[nH]1 [OR1011] ?
Result: < 50%

----------
- System: BxPC-3
- assay-remarks: In vitro cell proliferation assay (MTT)
- Assay type: cell-based
- settings: Homo sapiens, BXPC-3, 72 h
measured-quantity: EC50

Worked set:
Q: Return EC50 measured with BxPC-3 given this compound: COC(=O)c1cc2cc(NCc3cc(NC(=O)Cc4ccccc4Br)ccc3C)cnc2[nH]1 [OR0599]
Result: ≥ 1 µM

Q: Also COC(=O)c1cc2cc(NCc3cc(NC(=O)c4cncc(C(F)(F)F)c4)ccc3C)cnc2[nH]1 [OR0604] ?
Result: 0.1 to 1 µM

Q: Also COC(=O)c1cc2cc(NCc3cc(NC(=O)c4ccc5c(c4)OCO5)ccc3C)cnc2[nH]1 [OR0615] ?
Result: ≥ 1 µM

Q: Also COC(=O)c1cc2cc(NCc3cc(NC(=O)C4CCC(C(F)(F)F)CC4)ccc3C)cnc2[nH]1 (stereo not drawn) [OR0612] ?
Result: 0.1 to 1 µM

Q: Also COC(=O)c1cc2cc(NCc3cc(NC(=O)c4cccc(C(C)C)c4)ccc3C)cnc2[nH]1 [OR0610] ?
Result: 0.1 to 1 µM

Proceed to the following item.
Q: Return EC50 measured with BxPC-3 given this compound: COC(=O)c1cc2cc(NCc3cc(NC(=O)c4cccc5c4OCC5)ccc3C)cnc2[nH]1 [OR0618]
Result: 0.1 to 1 µM

----------
- study-target: ABL T315I (Homo sapiens, UniProt P00519, T315I)
- Construct: purchased Invitrogen
- assay-remarks: In vitro kinase assay (Z′-LYTE)
- Assay type: biochemical
- settings: read-out: % of inhibition of the kinase compared to the control
measured-quantity: inhibition at 10 µM

Q: Return inhibition at 10 µM measured with ABL T315I (Homo sapiens, UniProt P00519, T315I) given this compound: COC(=O)c1cc2cc(NCc3cc(NC(=O)c4cc(N(C)C)cc(C(F)(F)F)c4)ccc3C)cnc2[nH]1
Result: ≥ 50%

Q: Also COC(=O)c1cc2cc(NCc3cc(NC(=O)c4ccc(O)c(C(F)(F)F)c4)ccc3C)cnc2[nH]1 ?
Result: < 50%

Q: Also COC(=O)c1cc2cc(NCc3cc(NC(=O)c4ccc(-c5csc(C)n5)cc4)ccc3C)cnc2[nH]1 ?
Result: < 50%

Q: Also COC(=O)c1cc2cc(NCc3cc(NC(=O)c4ccc(CN5CCNCC5)c(C(F)(F)F)c4)ccc3C)cnc2[nH]1 ?
Result: ≥ 50%

----------
- study-target: EGFR (ErbB1) (Homo sapiens)
- Construct: purchased Invitrogen
- assay-remarks: In vitro kinase assay (Z′-LYTE)
- Type: biochemical
- settings: read-out: % of inhibition of the kinase compared to the control
- Protocol: The inhibitory activity of the compounds on several kinases including BRAF, EGFR (ErbB1), EGFR (ErbB1) T790M L858R, FGFR2, KDR (VEGFR2), PDGFRA (PDGFR alpha), SRC and other was evaluated by Invitrogen using the Z′-LYTE® technology. Briefly, the Z′-LYTE® biochemical assay employs a fluorescence-based, coupled-enzyme format and is based on the differential sensitivity of phosphorylated and non-phosphorylated peptides to proteolytic cleavage. […]
molecules and their reported inhibition at 0.1 µM

Q: Value lookup for inhibition at 0.1 µM; key = COC(=O)c1cc2cc(NCc3cc(NC(=O)c4ccc(CN5CCOCC5)c(C(F)(F)F)c4)ccc3C)cnc2[nH]1
Result: ≥ 50%

Q: Also COC(=O)c1cc2cc(NCc3cc(NC(=S)Nc4cccc(C(F)(F)F)c4)ccc3C)cnc2[nH]1 ?
Result: < 50%

Q: Also COC(=O)c1cc2cc(NCc3cc(NC(=O)c4cncc(C(F)(F)F)c4)ccc3C)cnc2[nH]1 ?
Result: ≥ 50%

Q: Also COC(=O)c1cc2cc(NCc3cc(NC(=O)c4cc(N(C)C)cc(C(F)(F)F)c4)ccc3C)cnc2[nH]1 ?
Result: < 50%

Q: Also COC(=O)c1cc2cc(NCc3cc(NC(=O)c4cncc(C)c4)ccc3C)cnc2[nH]1 ?
Result: ≥ 50%

New cases:
Q: Value lookup for inhibition at 0.1 µM; key = COC(=O)c1cc2cc(NCc3cc(NC(=O)C4CCC(C(F)(F)F)CC4)ccc3C)cnc2[nH]1 (stereo not drawn)
Result: < 50%

Q: Also COC(=O)c1cc2cc(NCc3cc(NC(=O)c4ccc(CN5CCC(N(C)C)C5)c(F)c4)ccc3C)cnc2[nH]1 (stereo not drawn) ?
Result: ≥ 50%

Q: Also COC(=O)c1cc2cc(NC(=O)c3cccc(CNC(=O)c4ccc(CN5CCN(C)CC5)c(C(F)(F)F)c4)c3)cnc2[nH]1 ?
Result: < 50%

Q: Also COC(=O)c1cc2cc(NCc3cc(NC(=O)c4ccc(CN5CCN(C)CC5)c(C(F)(F)F)c4)ccc3F)cnc2[nH]1 ?
Result: ≥ 50%

Q: Also COC(=O)c1cc2cc(NCc3cc(NC(=O)c4cc(Nc5cc[nH]n5)cc(C(F)(F)F)c4)ccc3C)cnc2[nH]1 ?
Result: ≥ 50%

Q: Also COC(=O)c1cc2cc(NCc3cc(NC(=O)c4ccc(C(F)(F)F)nc4)ccc3C)cnc2[nH]1 ?
Result: ≥ 50%

Q: Also COC(=O)c1cc2cc(NCc3cc(NC(=O)c4ccc5c(c4)OCO5)ccc3C)cnc2[nH]1 ?
Result: < 50%

Q: Also COC(=O)c1cc2cc(NCc3cc(NC(=O)c4cccc(C(C)C)c4)ccc3C)cnc2[nH]1 ?
Result: ≥ 50%

Q: Also COC(=O)c1cc2cc(NCc3cc(NC(=O)c4ccnc(C)c4)ccc3C)cnc2[nH]1 ?
Result: < 50%

Q: Also COC(=O)c1cc2cc(NCc3cc(NS(=O)(=O)c4ccc(C)cc4)ccc3C)cnc2[nH]1 ?
Result: < 50%

Q: Also COC(=O)c1cc2cc(NCc3cc(NC(=O)c4ccccc4OC)ccc3C)cnc2[nH]1 ?
Result: < 50%

Q: Also COC(=O)c1cc2cc(NC(=O)c3cc(NC(=O)c4cncc(C(F)(F)F)c4)ccc3C)cnc2[nH]1 ?
Result: < 50%

Q: Also COC(=O)c1cc2cc(NCc3cc(NC(=O)c4ccnc(C(F)(F)F)c4)ccc3C)cnc2[nH]1 ?
Result: < 50%

Q: Also COC(=O)c1cc2cc(NCc3cc(NC(=O)c4ccc(O)c(C(F)(F)F)c4)ccc3C)cnc2[nH]1 ?
Result: ≥ 50%

Q: Also COC(=O)c1cc2cc(NCc3cccc(NC(=O)c4ccc(CN5CCN(C)CC5)c(C(F)(F)F)c4)c3)cnc2[nH]1 ?
Result: ≥ 50%

Q: Also COC(=O)c1cc2cc(NCc3cc(NC(=O)c4ccc(-c5csc(C)n5)cc4)ccc3C)cnc2[nH]1 ?
Result: ≥ 50%
